Each recorded value in this set is attributed to the Human Domainome abundance scans (Beltran et al. 2025).

B1: Lysine-specific demethylase 2B, residues 656 to 722; numbered along this chain, Q8NHM5 (parent)
chain: LPHTAVCLVCGEAGKEDTVEEEEGKFNLMLMECSICNEIIHPGCLKIKESEGVVNDELPNCWECPKC

Variants of: B1
Experiment: abundance fitness (aPCA) (normalised: wild type 0, dead -1); higher = more abundant; growth selection in yeast, the domain comes from the species named
Settings: Homo sapiens
Outcome: Met for abundance fitness of at least -0.3; Not met for anything lower.

Study these solved cases before continuing.
# variant_descriptor, class_assignment
measured = [
    ("S50Q", "Met"),
    ("D17L", "Not met"),
    ("F26N", "Met"),
    ("V53E", "Met"),
    ("C44G", "Not met"),
]

Ask: Form field: abundance fitness at least -0.3? Entry: P2Q
Reply: Met

Ask: Form field: abundance fitness at least -0.3? Entry: I40K
Reply: Not met

Ask: Form field: abundance fitness at least -0.3? Entry: G43F
Reply: Not met

Ask: Form field: abundance fitness at least -0.3? Entry: H41K
Reply: Met

Ask: Form field: abundance fitness at least -0.3? Entry: V9L
Reply: Met

Ask: Form field: abundance fitness at least -0.3? Entry: C61K
Reply: Met

Ask: Form field: abundance fitness at least -0.3? Entry: I40C
Reply: Met

Ask: Form field: abundance fitness at least -0.3? Entry: A5D
Reply: Not met

Ask: Form field: abundance fitness at least -0.3? Entry: A5R
Reply: Met

Ask: Form field: abundance fitness at least -0.3? Entry: P2Y
Reply: Met

Ask: Form field: abundance fitness at least -0.3? Entry: V9C
Reply: Not met

Ask: Form field: abundance fitness at least -0.3? Entry: H41T
Reply: Not met

Ask: Form field: abundance fitness at least -0.3? Entry: K48V
Reply: Met

Ask: Form field: abundance fitness at least -0.3? Entry: D56E
Reply: Met

Ask: Form field: abundance fitness at least -0.3? Entry: P59Q
Reply: Met

Ask: Form field: abundance fitness at least -0.3? Entry: V6K
Reply: Met

Ask: Form field: abundance fitness at least -0.3? Entry: K66R
Reply: Met

Ask: Form field: abundance fitness at least -0.3? Entry: P65S
Reply: Met

Ask: Form field: abundance fitness at least -0.3? Entry: E16A
Reply: Not met
